Read-out: ABC Transporter (ABCB11), ABCB11 (gene 8647)
Protocol: LTEA_HepaRG_ABCB11: Life Technologies and Expression Analysis (LTEA) Assay for ABC Transporter (ABCB11) using HepaRG (AID 2283463)
Experimental setup: mRNA level, 48 h; actives raise or lower the signal
Description: LTEA_HepaRG is a cell based, multiplexed-readout assay that uses HepaRG, a human liver cell line, with measurements taken at 48 hours after chemical dosing on a 96-well plate.LTEA_HepaRG_ABCB11 is one of 102 assay component(s) measured in the LTEA HepaRG cell culture assay. It is a marker of Steatosis/NR mediated transport.Data from the assay component LTEA_HepaRG_ABCB11 was analyzed into 1 endpoint. […]
Active and inactive are the calls of the source. How the source made its calls: active means hit-call score of the fitted dose curve at least 0.9, where 1 is the maximum; inactive means score below 0.9.
Write down one outcome, taken from active, inactive

{"Compound": "CNC(=O)Oc1cccc2c1OC(C)(C)O2", "Category": "inactive"}
{"Compound": "CNC(=O)ON=C(C)SC", "Category": "active"}

Req: What classification did "CCCOCC(=Nc1ccc(Cl)cc1C(F)(F)F)n1ccnc1" end up with in this test?
Resp: active

Req: Each compound tested received a call. Report the one for "S=C1NCCN1" .
Resp: inactive

Req: Write down the call the test reported for this compound. Item: "O=c1ccc(=O)[nH][nH]1"
Resp: inactive

Req: # fetch the recorded call for CCc1cccc(C)c1N(C(=O)CCl)C(C)COC (centres undefined) here
Resp: inactive

Req: What outcome does the record of this test show for "C[Si](Cn1cncn1)(c1ccc(F)cc1)c1ccc(F)cc1" ?
Resp: active

Req: For this compound, state the assay outcome: "CCOP(=O)(OCC)Oc1cc(C)nc(C(C)C)n1"
Resp: inactive

Req: Please state the recorded outcome for this compound: "Nc1c(Cl)cc([N+](=O)[O-])cc1Cl"
Resp: active

Req: Called result for "CNC(=O)ON=C(SC)C(=O)N(C)C"
Resp: inactive

Req: Test call, this compound: "CC1(C(=O)Nc2ccc(O)c(Cl)c2Cl)CCCCC1"
Resp: inactive

Req: Would you mind telling me which call this test gave COP(=O)(NC(C)=O)SC (centres undefined) ?
Resp: inactive

Req: Each compound tested received a call. Report the one for "COc1cc(OC)nc(Sc2cccc(Cl)c2C(=O)O)n1" .
Resp: inactive

Req: Assay outcome for "C#CC(C)(C)NC(=O)c1cc(Cl)cc(Cl)c1" : what was it?
Resp: inactive

* * *

Exercise: for every item that follows, state its recorded AC50.
Study target: Peroxisome proliferator-activated receptor gamma (Homo sapiens)
Protocol: ATG_hPPARg_XSP2: Attagene TRANS-FACTORIAL Multi-Species (XSP2) HepG2 Assay for human Peroxisome Proliferator-activated Receptor gamma (PPARg) (AID 2283829);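 further: actives raise reporter mRNA above DMSO so AC50 reflects PPARg activation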
Inconclusive results are not listed. Calls of active or inactive are those of the source. Rule for the calls: active = hit-call score of the fitted dose curve at least 0.9, where 1 is the maximum; inconclusive = response in the unintended direction; inactive = score below 0.9.

{"Compound": "CCOP(=S)(OCC)Oc1ccc2c(C)c(Cl)c(=O)oc2c1", "AC50": "27 µM (active)"}

Dear reader, for each entry below, please note its AC50.
1. CCCOCC(=Nc1ccc(Cl)cc1C(F)(F)F)n1ccnc1
2. CCc1cccc(C)c1N(C(=O)CCl)C(C)COC (centres undefined)
3. CCC(=O)Nc1ccc(Cl)c(Cl)c1

Resp:
1. 0.909 µM (active)
2. 55.8 µM (active)
3. 27.2 µM (active)

* * *

Read-out: Cytochrome P450 (CYP1A1), CYP1A1 (gene 1543)
Protocol: LTEA_HepaRG_CYP1A1: Life Technologies and Expression Analysis (LTEA) Assay for Cytochrome P450 (CYP1A1) using HepaRG (AID 2283454)
Experimental setup: mRNA level, 48 h; actives raise or lower the signal
Procedure: LTEA_HepaRG is a cell based, multiplexed-readout assay that uses HepaRG, a human liver cell line, with measurements taken at 48 hours after chemical dosing on a 96-well plate.LTEA_HepaRG_CYP1A1 is one of 102 assay component(s) measured in the LTEA HepaRG cell culture assay. It is a marker of NR mediated metabolism.Data from the assay component LTEA_HepaRG_CYP1A1 was analyzed into 1 endpoint. […]
The source made the active and inactive calls. How the source made its calls: active means hit-call score of the fitted dose curve at least 0.9, where 1 is the maximum; inactive means score below 0.9.
Log the outcome using a class from active, inactive

Past entries and their recorded results:
{"Compound": "CCC(=O)Nc1ccc(Cl)c(Cl)c1", "Category": "active"}
{"Compound": "Nc1c(Cl)cc([N+](=O)[O-])cc1Cl", "Category": "active"}

Req: // param item: "CNC(=O)ON=C(SC)C(=O)N(C)C" ; yields the recorded call
Resp: inactive

Req: Would you mind telling me which call this test gave "CSC1=N[C@@](C)(c2ccccc2)C(=O)N1Nc1ccccc1" ?
Resp: inactive

Req: How did this test come out for "CN(C)C(=O)Nc1cccc(C(F)(F)F)c1" ?
Resp: active

Req: Identify the outcome logged in this assay for the compound shown: COP(=O)(NC(C)=O)SC (stereo unspecified)
Resp: inactive

Req: Tell me the assay call for "CCCCN(CC)c1c([N+](=O)[O-])cc(C(F)(F)F)cc1[N+](=O)[O-]" please.
Resp: active

Req: # fetch the recorded call for "O=c1ccc(=O)[nH][nH]1" here
Resp: inactive

Req: Give the logged outcome of this assay for the following compound: "CCc1cccc(CC)c1N(COC)C(=O)CCl"
Resp: active

Req: Give the logged outcome of this assay for the following compound: CC(COc1ccc(Oc2ccccc2)cc1)Oc1ccccn1 (stereo unspecified)
Resp: active

Req: I would be grateful if you could indicate the recorded call for CC(C)=CC1C(C(=O)OCN2C(=O)C3=C(CCCC3)C2=O)C1(C)C (stereo unspecified) .
Resp: active

Req: Record lookup: outcome of this test for "CON=C(C(=O)OC)c1ccccc1CON=C(C)c1cccc(C(F)(F)F)c1" ?
Resp: active

Req: What did this assay record as the result for "C[N+]1(C)CCCCC1" ?
Resp: active

Req: Given CC(C1CC1)C(O)(Cn1cncn1)c1ccc(Cl)cc1 (stereo unspecified) , state the outcome it received in this test.
Resp: active

* * *

Read-out: Apoptosis regulator Bcl-2 (Homo sapiens) (UniProt P10415)
Sequence (P10415 whole entry, looked up): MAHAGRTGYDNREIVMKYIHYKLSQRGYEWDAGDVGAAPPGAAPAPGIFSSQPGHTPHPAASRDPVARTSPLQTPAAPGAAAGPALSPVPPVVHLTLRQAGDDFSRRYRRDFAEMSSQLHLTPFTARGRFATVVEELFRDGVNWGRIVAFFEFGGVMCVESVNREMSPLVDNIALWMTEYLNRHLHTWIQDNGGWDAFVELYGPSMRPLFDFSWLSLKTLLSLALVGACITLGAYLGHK
Protocol: LTEA_HepaRG_BCL2: Life Technologies and Expression Analysis (LTEA) Assay for Bcl-2 gene using HepaRG (AID 2283475);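 further: BCL2 transcript by TaqMan qRT-PCR normalised to ACTB GAPDH and POLR2A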
Experimental setup: mRNA level, 48 h; actives raise or lower the signal
The source made the active and inactive calls. Rule for the calls: active = hit-call score of the fitted dose curve at least 0.9, where 1 is the maximum; inactive = score below 0.9.
Your reply should match one of these outcome classes. active, inactive

Req: # lookup: test call for "CNC(=O)Oc1cccc2c1OC(C)(C)O2"
Resp: inactive

Req: Could you kindly confirm the outcome this assay logged for "C#CC(C)(C)NC(=O)c1cc(Cl)cc(Cl)c1" ?
Resp: inactive

* * *

Protocol: ATG_Ets_CIS: Attagene CIS-FACTORIAL HepG2 Assay for human Erythroblast Transformation Specific (ETS) (AID 2282941)
Experimental setup: HepG2 ETS cis-reporter transcription, actives raise or lower the signal
Active and inactive are the calls of the source. The calls were made as follows: active = hit-call score of the fitted dose curve at least 0.9, where 1 is the maximum; inactive = score below 0.9.
Endpoint: outcome

Would you please look over these solved cases?
{"Line notation": "CCNc1nc(Cl)nc(NC(C)(C)C#N)n1", "outcome": "inactive"}
{"Line notation": "C#CC(C)(C)NC(=O)c1cc(Cl)cc(Cl)c1", "outcome": "inactive"}
{"Line notation": "CCOP(=S)(OCC)Oc1cc(C)nc(C(C)C)n1", "outcome": "inactive"}
{"Line notation": "CCCCN(CC)c1c([N+](=O)[O-])cc(C(F)(F)F)cc1[N+](=O)[O-]", "outcome": "inactive"}
{"Line notation": "Cc1nn(-c2cc(NS(C)(=O)=O)c(Cl)cc2Cl)c(=O)n1C(F)F", "outcome": "inactive"}

Here is another compound to look at.
Req: Consider the compound "CCC(CC)Nc1c([N+](=O)[O-])cc(C)c(C)c1[N+](=O)[O-]" and give its recorded outcome.
Resp: inactive

* * *

Protocol: ATG_ISRE_CIS: Attagene CIS-FACTORIAL HepG2 Assay for human Interferon Regulatory Factor 1 (IRF1) binding to an Interferon-Stimulated Response Element (ISRE) (AID 2282948)
Experimental setup: HepG2 ISRE cis-reporter (Attagene), mRNA transcription readout; actives raise or lower the signal
Active and inactive are the calls of the source. The calls were made as follows: active = hit-call score of the fitted dose curve at least 0.9, where 1 is the maximum; inactive = score below 0.9.
// allowed return values: label 1 for active, label 0 for inactive

{"Compound": "CCC(=NOC/C=C/Cl)C1=C(O)CC(C2CCOCC2)CC1=O (stereo unspecified)", "Category": "label 0"}
{"Compound": "CCOP(=S)(Oc1cnc(C(C)(C)C)nc1)OC(C)C (stereo unspecified)", "Category": "label 0"}

Req: What outcome does the record of this test show for CCc1cccc(C)c1N(C(=O)CCl)C(C)COC (stereo unspecified) ?
Resp: label 0

Req: Each compound tested received a call. Report the one for "O=C(O)c1cc(Oc2ccc(C(F)(F)F)cc2Cl)ccc1[N+](=O)[O-]" .
Resp: label 0

Req: Call for entry "CN(C)NC(=O)CCC(=O)O" :
Resp: label 0

Req: Tell me the recorded outcome of this test for "CON=C(C(=O)OC)c1ccccc1CON=C(C)c1cccc(C(F)(F)F)c1" .
Resp: label 1

Req: What classification did "C[N+]1(C)CCCCC1" end up with in this test?
Resp: label 0

Req: Which outcome was assigned to "CNC(=O)Oc1cccc2c1OC(C)(C)O2" in this test?
Resp: label 0
